Consider compounds characterized by their HepSE_jaundice with Hepatotoxicity.
endpoint.label: HepSE_jaundice

{"compound": "C=C(c1ccc(C(=O)O)cc1)c1cc2c(cc1C)C(C)(C)CCC2(C)C [BEXAROTENE]", "endpoint.label": "HepSE_jaundice", "numeric.result": 0}
{"compound": "CC(C)/N=c1\\cc2n(-c3ccc(Cl)cc3)c3ccccc3nc-2cc1Nc1ccc(Cl)cc1 [CLOFAZIMINE]", "endpoint.label": "HepSE_jaundice", "numeric.result": 1}
{"compound": "Nc1cc(Cl)c(N=C2NCCN2)c(Cl)c1 [APRACLONIDINE]", "endpoint.label": "HepSE_jaundice", "numeric.result": 0}
{"compound": "C=CC[C@@H]1/C=C(\\C)C[C@H](C)C[C@H](OC)[C@H]2O[C@@](O)(C(=O)C(=O)N3CCCC[C@H]3C(=O)O[C@H](/C(C)=C/[C@@H]3CC[C@@H](O)[C@H](OC)C3)[C@H](C)[C@@H](O)CC1=O)[C@H](C)C[C@@H]2OC [TACROLIMUS ANHYDROUS]", "endpoint.label": "HepSE_jaundice", "numeric.result": 1}
{"compound": "CCCCc1nc(N)[se]c1CCC", "endpoint.label": "HepSE_jaundice", "numeric.result": 0}
{"compound": "O=C1CCc2ccc(OCCCCN3CCN(c4cccc(Cl)c4Cl)CC3)cc2N1 [ARIPIPRAZOLE]", "endpoint.label": "HepSE_jaundice", "numeric.result": 1}
{"compound": "NC12CC3CC(CC(C3)C1)C2 [AMANTADINE]", "endpoint.label": "HepSE_jaundice", "numeric.result": 0}
{"compound": "[Mg]", "endpoint.label": "HepSE_jaundice", "numeric.result": 0}
{"compound": "CC[C@@H]1C(=O)OC[C@@H]1Cc1cncn1C [PILOCARPINE]", "endpoint.label": "HepSE_jaundice", "numeric.result": 0}
{"compound": "C[C@]12C/C(=C/O)C(=O)C[C@@H]1CC[C@@H]1[C@@H]2CC[C@@]2(C)[C@H]1CC[C@]2(C)O [OXYMETHOLONE]", "endpoint.label": "HepSE_jaundice", "numeric.result": 1}
{"compound": "CC(C)NCC(O)c1cc(O)cc(O)c1 (stereo not given) [METAPROTERENOL]", "endpoint.label": "HepSE_jaundice", "numeric.result": 0}
{"compound": "CCC1(C)CC(=O)NC1=O (stereo not given) [ETHOSUXIMIDE]", "endpoint.label": "HepSE_jaundice", "numeric.result": 0}
{"compound": "OC[C@@H](O)[C@@H](O)[C@H](O)[C@H](O)CO [MANNITOL]", "endpoint.label": "HepSE_jaundice", "numeric.result": 0}
{"compound": "CN(C)CCCN1c2ccccc2CCc2ccccc21 [IMIPRAMINE]", "endpoint.label": "HepSE_jaundice", "numeric.result": 1}
{"compound": "CC(=O)[C@H]1CC[C@H]2[C@@H]3CCC4=CC(=O)CC[C@]4(C)[C@H]3CC[C@]12C [PROGESTERONE]", "endpoint.label": "HepSE_jaundice", "numeric.result": 1}
{"compound": "CCCCCNC(=N)N/N=C/c1c[nH]c2ccc(OC)cc12 [TEGASEROD]", "endpoint.label": "HepSE_jaundice", "numeric.result": 0}
{"compound": "C=C1/C(=C\\C=C2/CCC[C@]3(C)[C@@H]([C@H](C)CCCC(C)(C)O)CC[C@@H]23)C[C@@H](O)C[C@@H]1O [CALCITRIOL]", "endpoint.label": "HepSE_jaundice", "numeric.result": 0}
{"compound": "O.O=P(O)(O)C(O)(Cn1ccnc1)P(=O)(O)O [ZOLEDRONIC ACID]", "endpoint.label": "HepSE_jaundice", "numeric.result": 0}
{"compound": "CN(C)CCCC1(c2ccc(F)cc2)OCc2cc(C#N)ccc21 (stereo not given) [CITALOPRAM]", "endpoint.label": "HepSE_jaundice", "numeric.result": 1}
{"compound": "CCCCCCCCCCCCCCCCCCCCCCO [DOCOSANOL]", "endpoint.label": "HepSE_jaundice", "numeric.result": 0}

These data points were gathered from ChEMBL document CHEMBL1909294.
